- Test system: Chordin-like protein 2 (CHRDL2)
- PROTOCOL NOTES: CHRDL2 small-molecule binders, primary screen, biochemical, small-molecule microarray, 635 nm fluorescence (AID 1126);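 further: printed compound slides probed with Chrdl2 protein at 4 µg/mL for 1 h at 4 C; score merges 667 nm emission intensity with signal to noise over three replicate slides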
- EXPERIMENTAL PARAMETERS: small-molecule microarray binding, fluorescence 635 nm; higher = more signal
READOUT TYPE: composite z-score
Provide a numeric answer; units are not to be included.

SUBSTANCE SMILES	RESULT NUMBER
CCOC(=O)C[C@H]1[C@H](OC(=O)c2ccc(C(=O)c3ccccc3)cc2)[C@@H](NC(=O)c2ccc3ccccc3n2)c2cc(OCCCO)ccc2N1C(=O)c1ccccc1	-0.322
C=CCOC(=O)[C@H]1[C@@H]2C(=O)O[C@@H](c3ccccc3)[C@@H](c3ccccc3)N2[C@@H](c2ccc(OCCOC(=O)[C@H]3C[C@H]4C(=O)N[C@@H](CCCCNC(C)=O)C(=O)N4[C@H]3c3cccc(OCCO)c3)cc2)[C@]12C(=O)Nc1ccccc12	1.31
CC(C)C(=C=CC[C@@H](O)c1ccc(OCCO)cc1)C[C@@H](O)COCc1ccccc1	0.325
COC(=O)[C@H](Cc1ccccc1)N[C@@H](/C=C/C1CC1)[C@H](O)Cc1ccccc1	-0.0635

Input: Please report composite z-score for the following molecule: O=C1C[C@@](C(=O)NCCN2CCOCC2)(c2ccc([N+](=O)[O-])cc2)[C@@H](c2ccc(CO)cc2)N1CC12CC3CC(CC(C3)C1)C2
Output: 0.901

Input: Look up and report measured composite z-score for this entry: O=C1C[C@@](C(=O)NCC(F)(F)F)(c2ccc([N+](=O)[O-])cc2)[C@@H](c2ccc(CO)cc2I)N1C1CCCCC1
Output: 0.189

###

- Test system: Lefty1
- PROTOCOL NOTES: Lefty1 binders on small-molecule microarrays, primary screen, biochemical, small-molecule microarray, 635/667 nm fluorescence (AID 1139)
- EXPERIMENTAL PARAMETERS: small-molecule microarray binding, fluorescence 635/667; higher = more signal
READOUT TYPE: composite z-score
Output: the number by itself.

Below: 5 compounds and their reported composite z-score.
SUBSTANCE SMILES	RESULT NUMBER
O=C1C[C@@](C(=O)NCC(F)(F)F)(c2ccc([N+](=O)[O-])cc2)[C@@H](c2ccc(CO)cc2I)N1C1CCCCC1	0.394
COC(=O)C(CC#Cc1ccc2c(c1)[C@]1(C(=O)N2)[C@H](C(=O)Nc2nc3ccccc3s2)[C@H]2C(=O)O[C@H](c3ccccc3)[C@H](c3ccccc3)N2[C@@H]1c1ccccc1OCCO)C(=O)OC	0.625
COC(=O)[C@@]1(Cc2ccc(F)cc2)[C@H]2c3cc(C(=O)N(C)C)n(Cc4cc(F)c(F)c(F)c4)c3C[C@H]2CN1C(=O)c1ccccc1	-0.788
CCOC(=O)C[C@H]1[C@H](OC(=O)c2ccccc2-c2ccccc2)[C@@H](NC(=O)CC(C)C)c2cc(OCCCO)ccc2N1C(=O)Cc1ccc(OC)cc1	0.108
COCCOC(=O)N1C(=O)[C@@]2(c3cc(C#CCC(C(=O)OC)C(=O)OC)ccc31)[C@H](C(=O)N1CCN(c3ncccn3)CC1)[C@H]1C(=O)O[C@H](c3ccccc3)[C@H](c3ccccc3)N1[C@@H]2c1ccccc1OCCO	1.54

Now look at this one.
Input: Indicate the recorded composite z-score value for this compound: Oc1ccc2cc[n+](Cc3sc4ccccc4c3Cl)cc2c1
Output: 0.506

###

# Lookup of reported composite z-score keyed by entry
- TARGET DESC: Fibroblast growth factor 2 (Homo sapiens) (UniProt P09038)
- Sequence (P09038 whole entry, looked up): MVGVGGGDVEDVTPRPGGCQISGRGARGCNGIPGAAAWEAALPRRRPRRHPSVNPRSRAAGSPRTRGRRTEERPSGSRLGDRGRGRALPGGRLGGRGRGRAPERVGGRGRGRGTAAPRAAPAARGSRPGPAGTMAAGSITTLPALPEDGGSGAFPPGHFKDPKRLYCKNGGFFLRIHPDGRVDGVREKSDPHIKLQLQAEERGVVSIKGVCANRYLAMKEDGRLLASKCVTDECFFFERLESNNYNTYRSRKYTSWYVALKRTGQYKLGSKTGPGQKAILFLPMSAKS
- PROTOCOL NOTES: FGF2 binders on small-molecule microarrays, primary screen, biochemical, small-molecule microarray, 635/667 nm fluorescence (AID 1133)
- EXPERIMENTAL PARAMETERS: small-molecule microarray binding, FGF2, fluorescence 635/667; higher = more signal
Response field accepts a number only; no unit should be typed.

COMPOUND	READOUT TYPE	RESULT NUMBER
C=CCOC(=O)[C@@H]1[C@H]2C(=O)O[C@H](c3ccccc3)[C@H](c3ccccc3)N2[C@H](c2ccc(OCCOC(=O)[C@H]3C[C@H]4C(=O)N5CCC[C@H]5C(=O)N4[C@H]3c3ccc(O)cc3)cc2)[C@@]12C(=O)Nc1ccc(I)cc12	composite z-score	1.58

Input: Please give measured composite z-score of the following entry: CC(C)N1C(=O)[C@@]2(Cc3ccccc31)c1ccccc1C(=O)N(Cc1ccccc1Cl)[C@H]2c1ccc(CO)cc1
Output: -0.468

Input: Give composite z-score for the following compound: CC1(C)C2C=C(C(O)C3C=CC4C(=O)NC(=O)C4N3Nc3ccc(Cl)cc3Cl)C[C@@H]1C2 (some centres not stated)
Output: -0.169

Input: Item CC[C@@H]1C=C(C(=O)O)[C@H](c2ccc(Br)cc2)N1S(=O)(=O)c1ccc(C)cc1 : provide composite z-score
Output: -0.0934

Input: Give me measured composite z-score, please, for this compound: CN(C)CCCC[C@@H]1NC(=O)[C@@H]2C[C@H](C(=O)NCCCCCCN)[C@H](c3cccc(OCCO)c3)N2C1=O
Output: 0.357

Input: Using known records, supply composite z-score for COC(=O)C[C@H]1O[C@]2(C(=O)N(C)c3ccccc32)[C@@H](C)[C@@H]1[Si](C)(C)F
Output: 2.03

Input: Give the value of composite z-score reported for the following: CCCC[C@@H]1C[C@H]1[C@@H](NC(=O)c1ccccc1)c1ccc(C(=O)OC)cc1
Output: -1.67

###

// composite z-score lookup, one value per entry
- TARGET DESC: Follistatin (Homo sapiens)
- PROTOCOL NOTES: follistatin binders on small-molecule microarrays, primary screen, biochemical, small-molecule microarray, 635/667 nm fluorescence (AID 1132)
- EXPERIMENTAL PARAMETERS: FST binding, 635 nm fluorescence, higher = more signal
Quick one: just the number, no unit, thanks!

Below: 2 molecules and their reported composite z-score.
MOLECULE	RESULT NUMBER
C[N+](C)(C)CCCCCCNC(=O)[C@@H]1C[C@@H]2C(=O)N[C@@H](Cc3ccccc3)C(=O)N2[C@@H]1c1cccc(OCCO)c1	1.34
C=CCN1C(=O)[C@]2(O[C@H](CCn3cc([C@H](O)c4ccccc4)nn3)[C@@H]([Si](C)(C)c3ccc(OC)cc3)[C@@H]2C)c2ccccc21	-0.696

Input: Read off the recorded composite z-score for C[C@H]1NC(=O)[C@@]23C(=O)N[C@@H](Cc4ccccc4)C2[C@H](C)[C@@]2(C)O[C@H]2C3/C=C/C/C=C\CNC(=O)[C@@H]2CCCN2C1=O (stereo partly drawn)
Output: 1.05

###

Attribute: composite z-score
- TARGET DESC: Streptavidin (Streptomyces avidinii) (UniProt P22629)
- Sequence (P22629 whole entry, looked up): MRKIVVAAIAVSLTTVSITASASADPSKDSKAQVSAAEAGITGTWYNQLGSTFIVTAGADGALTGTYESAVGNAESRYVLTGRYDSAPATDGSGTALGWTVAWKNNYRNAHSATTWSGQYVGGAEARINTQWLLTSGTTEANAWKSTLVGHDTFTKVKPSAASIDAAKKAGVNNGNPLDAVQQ
- PROTOCOL NOTES: streptavidin binders on small-molecule microarray, primary screen, artefact control for SMM compound annotation, biophysical, 635/667 nm fluorescence (AID 1147);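 further: signal reflects streptavidin binding to arrayed compounds as a control protein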
- EXPERIMENTAL PARAMETERS: streptavidin binding, higher = more signal
Please give only the number in your answer, with no unit.

Record excerpt, results attached:
COMPOUND	composite z-score
CC(C)C(CO)N1C(=O)[C@@H]2C3C(=O)OCCC/C=C\[C@H]3OC23C=CCN(CCN2CCOCC2)C(=O)[C@@H]13 (some centres undefined)	-0.578
CC1CC/C=C\[C@H]2OC34C=CCN(C(C)(C)C)C(=O)[C@H]3N(C(C)CO)C(=O)[C@@H]4C2C(=O)O1 (some centres undefined)	-1.3

Input: Give reported composite z-score value for O=C1O[C@@H](c2ccccc2)[C@@H](c2ccccc2)N2[C@@H](c3ccccc3OCCO)[C@]3(C(=O)Nc4ccccc43)[C@@H](C(=O)Nc3nc4ccccc4s3)[C@H]12
Output: 1.9

Input: For the compound COCCCNC(=O)[C@@]1(C)c2ccccc2C(=O)N(C(C)C)[C@H]1c1ccc(CO)cc1 , give its reported composite z-score.
Output: 0.889

###

# maps each entry to its z-score
- PROTOCOL NOTES: fission yeast growth modulation, primary screen, strain 972, OD600, 24 h, no modulator (AID 1090);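 further: basal condition with compound alone and no growth modifier present; test concentration not given here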
- EXPERIMENTAL PARAMETERS: S. pombe 972 growth, higher = more signal, called active from +8 up or from −8 down
Lab note: write the figure by itself, no unit.

MOLECULE	READOUT TYPE	RESULT NUMBER
CC(C)C(O)C1C=CC2C(=O)N(c3ccccc3)C(=O)C2N1Nc1ccc([N+](=O)[O-])cc1 (centres undefined)	z-score	0.815

Input: Tell me its z-score given CO[C@H]1O[C@H](CO)[C@@H](OC(=O)Nc2cccc(F)c2)[C@H](OC(=O)Nc2ccccc2)[C@@H]1OC(=O)Nc1ccccc1 as the entry.
Output: 1.32

Input: Provide one value: measured z-score of COc1ccc(CCNC(=O)[C@@]2(Sc3ccc(C)cc3)CC(=O)N(C3Cc4ccccc4C3)[C@@H]2c2ccc(CO)cc2I)cc1
Output: -2.75

Input: Could you please provide reported z-score for CC(=O)NCCCC[C@@H]1NC(=O)[C@H]2C[C@@H](C(=O)NCCCCCCNC(=O)CS)[C@@H](c3ccc(O)cc3)N2C1=O ? Thanks!
Output: 0.686

Input: Please give measured z-score of the following entry: C=C(/C(=C/C[C@H](OC(C)=O)c1ccc(CO)o1)c1cc(C(=O)OC)ccc1OC)C(C)C
Output: -0.967

Input: Look up and state reported z-score for C=C[C@H](CO[Si](CC)(CC)CC)N(Cc1ccc(OC(C)=O)c(OC)c1)S(=O)(=O)c1ccc(Br)cc1
Output: -1.01

Input: Consider the molecule O=C(N1CCCCC1)[C@]1(Cc2ccccc2)N=C(c2ccc(OCCCO)cc2)O[C@@H]1c1ccccc1 and give its recorded z-score.
Output: -1.52

Input: Please list z-score recorded for the molecule CN(C)CCCCCCNC(=O)[C@H]1C[C@H]2C(=O)N3CCC[C@H]3C(=O)N2[C@H]1c1ccc(O)cc1
Output: -1.4

Input: Report measured z-score; entry is COCCOC(=O)N1C(=O)[C@@]2(c3cc(C#CCC(C(=O)OC)C(=O)OC)ccc31)[C@H](C(=O)Nc1nc3ccccc3s1)[C@H]1C(=O)O[C@H](c3ccccc3)[C@H](c3ccccc3)N1[C@@H]2c1ccccc1OCCO
Output: 2.08
